- System name: T1, human CD33 (human, UniProt P20138 18-364)
- T1 construct: CD33 on human primary dendritic cells, macrophages, monocytes and T cells and on CHO cells expressing recombinant human CD33; also called Siglec-3; hCD33
- T1 sequence (P20138 18-364): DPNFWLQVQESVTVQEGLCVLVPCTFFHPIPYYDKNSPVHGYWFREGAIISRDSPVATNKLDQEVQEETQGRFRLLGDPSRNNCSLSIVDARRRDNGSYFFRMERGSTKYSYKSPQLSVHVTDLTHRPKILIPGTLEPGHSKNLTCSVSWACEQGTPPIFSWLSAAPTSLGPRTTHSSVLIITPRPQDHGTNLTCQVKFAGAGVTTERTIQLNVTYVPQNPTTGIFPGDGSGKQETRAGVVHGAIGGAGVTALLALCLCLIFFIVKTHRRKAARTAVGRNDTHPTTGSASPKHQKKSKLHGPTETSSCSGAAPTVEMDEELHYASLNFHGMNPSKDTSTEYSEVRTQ
- Method summary: flow cytometry, human primary dendritic cells;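 further: binding of anti-CD33 antibodies (10 ug/ml, 1 h on ice) to human primary dendritic cells, detected with a PE-labelled secondary antibody, reported as flow cytometry MFI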
DC MFI values by entry

- Binder: "C-68 (antibody, V domains shown, human IgG1) VH: QVQLQESGPGLVKPSQTLSLTCTVSGGSISSGGYYWSWIRQHPGKGLEWIGNIYYSGSTYYNPSLKSRVTISVDTSKNQFSLKLSSVTAADTAVYYCARDLPNSGSPGSDYFDYWGQGTLVTVSS VL: EIVLTQSPGTLSLSPGERATLSCRASQSVSSSYLAWYQQKPGQAPRLLIYGASSRATGIPDRFSGSGSGTDFTLTISRLEPEDFAVYYCQQYDNYPPTFGGGTKVEIK"
  DC MFI: 526
- Binder: "C-61 (antibody, V domains shown, human IgG1) VH: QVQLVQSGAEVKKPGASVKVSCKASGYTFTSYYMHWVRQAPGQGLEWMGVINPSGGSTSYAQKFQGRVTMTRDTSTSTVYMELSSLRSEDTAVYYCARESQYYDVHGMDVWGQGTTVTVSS VL: EIVLTQSPGTLSLSPGERATLSCRASQSVSSSYLAWYQQKPGQAPRLLIYGASSRATGIPDRFSGSGSGTDFTLTISRLEPEDFAVYYCQQYYGLPLTFGGGTKVEIK"
  DC MFI: 1310
- Binder: "C-88 (antibody, V domains shown, human IgG1) VH: QLQLQESGPGLVKPSETLSLTCTVSGGSISSSSYYWGWIRQPPGKGLEWIGSIYYSGSTYYNPSLKSRVTISVDTSKNQFSLKLSSVTAADTAVYYCARLPIYYDSSGYFDYHGMDVWGQGTTVTVSS VL: EIVLTQSPATLSLSPGERATLSCRASQSVSSYLAWYQQKPGQAPRLLIYDASNRATGIPARFSGSGSGTDFTLTISSLEPEDFAVYYCQQHANHPPTFGGGTKVEIK"
  DC MFI: 178
- Binder: "C-19 (antibody, V domains shown, human IgG1) VH: QLQLQESGPGLVKPSETLSLTCTVSGGSISSSSYAWGWIRQPPGKGLEWIGSIYYSGSTYYNPSLKSRVTISVDTSKNQFSLKLSSVTAADTAVYYCARVGYTRPYGMDVWGQGTTVTVSS VL: DIQMTQSPSSVSASVGDRVTITCRASQGISSWLAWYQQKPGKAPKLLIYAASSLQSGVPSRFSGSGSGTDFTLTISSLQPEDFATYYCQQINAHPTFGGGTKVEIK"
  DC MFI: 1700
- Binder: "C-41 (antibody, V domains shown, human IgG1) VH: QLQLQESGPGLVKPSETLSLTCTVSGGSISSSSYYWGWIRQPPGKGLEWIGSISYSGSTYYNPSLKSRVTISVDTSKNQFSLKLSSVTAADTAVYYCAREGGKGMDVWGQGTLVTVSS VL: EIVLTQSPGTLSLSPGERATLSCRASQSVSSSFLAWYQQKPGQAPRLLIYGASSRATGIPDRFSGSGSGTDFTLTISRLEPEDFAVYYCQQFGDLPTFGGGTKVEIK"
  DC MFI: 1810
